I'd appreciate it if you could supply IC50 values for the items below.
Your answer is read as µM, so omit the unit and give the number.

Provide measured IC50 on δ-opiate receptors (Rattus norvegicus, UniProt P33533) for C[C@@H](O)[C@H](NC(=O)[C@H]1NC(=O)[C@H]([C@@H](C)O)NC(=O)[C@H](CCCCN)NC(=O)[C@@H](Cc2c[nH]c3ccccc23)NC(=O)[C@H](Cc2ccccc2)NC(=O)[C@@H](NC(=O)[C@H](N)Cc2ccccc2)C(C)(C)SSC1(C)C)C(=O)O [drawing 30] please.
Sequence (P33533 whole entry): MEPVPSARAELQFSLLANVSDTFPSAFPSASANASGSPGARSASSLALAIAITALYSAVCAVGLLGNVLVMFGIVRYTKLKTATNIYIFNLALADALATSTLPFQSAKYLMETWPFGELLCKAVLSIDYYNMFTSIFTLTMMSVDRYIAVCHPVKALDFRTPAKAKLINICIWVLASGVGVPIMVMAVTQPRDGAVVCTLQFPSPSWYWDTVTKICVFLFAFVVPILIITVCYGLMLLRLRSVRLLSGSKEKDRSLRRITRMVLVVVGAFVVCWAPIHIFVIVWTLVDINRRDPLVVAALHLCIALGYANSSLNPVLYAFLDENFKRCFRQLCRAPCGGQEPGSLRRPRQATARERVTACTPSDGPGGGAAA
11.1

Provide measured IC50 on δ-opiate receptors (Rattus norvegicus, UniProt P33533) for C[C@@H](O)[C@H](NC(=O)[C@@H]1CSSC(C)(C)[C@H](NC(=O)[C@H](N)Cc2ccccc2)C(=O)N[C@@H](Cc2ccccc2)C(=O)N[C@H](Cc2c[nH]c3ccccc23)C(=O)N[C@@H](CCCCN)C(=O)N[C@@H]([C@@H](C)O)C(=O)N1)C(=O)O [drawing 32] please.
38.1

Provide measured IC50 on δ-opiate receptors (Rattus norvegicus, UniProt P33533) for C[C@@H](O)[C@H](NC(=O)[C@H]1NC(=O)[C@H]([C@@H](C)O)NC(=O)[C@H](CCCCN)NC(=O)[C@@H](Cc2c[nH]c3ccccc23)NC(=O)[C@H](Cc2ccccc2)NC(=O)[C@@H](NC(=O)[C@H](N)Cc2ccccc2)CSSC1(C)C)C(=O)O [drawing 27] please.
5.42
